# tested-target: UniProt:P30542
# Sequence (P30542 whole entry): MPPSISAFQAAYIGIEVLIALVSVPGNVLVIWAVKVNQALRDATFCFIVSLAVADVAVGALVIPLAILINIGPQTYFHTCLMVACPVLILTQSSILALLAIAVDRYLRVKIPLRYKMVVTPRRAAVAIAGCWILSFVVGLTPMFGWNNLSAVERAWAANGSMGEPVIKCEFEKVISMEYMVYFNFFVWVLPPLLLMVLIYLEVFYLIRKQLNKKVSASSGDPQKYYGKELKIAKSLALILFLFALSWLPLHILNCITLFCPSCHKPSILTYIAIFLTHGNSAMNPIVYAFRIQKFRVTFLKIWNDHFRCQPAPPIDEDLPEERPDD
# assay-procedure: A1 adenosine receptor radioligand binding assay ([3H] DPCPX)
# measurement-parameters: 200 nM compound; radioligand [3H] DPCPX 1 nM
readout-type: inhibition at 0.2 µM (%)
Dear colleague, please return just the value in %, with no unit written.

## Task Look up inhibition at 0.2 µM for this compound: N#Cc1cccc(-c2nc(N)cnc2-c2cc(Cl)c3ncccc3c2)c1 [Compound No. 2-6]
## Result 90

## Task Look up inhibition at 0.2 µM for this compound: CCN(CC)CCNC(=O)c1nc(-c2ccc3ncccc3c2)c(-c2ccccc2)nc1N [compound 107]
## Result 49

## Task Look up inhibition at 0.2 µM for this compound: CC(NC(=O)c1nc(-c2cc(Cl)c3ncccc3c2)c(-c2ccccc2)nc1N)c1cccc(C#N)n1 (stereo not drawn) [Compound No. 114]
## Result 95

====

# tested-target: HEK-293 cells expressing human recombinant adenosine A2A receptor (Homo sapiens (Human), UniProt P29274)
# Sequence (P29274 whole entry): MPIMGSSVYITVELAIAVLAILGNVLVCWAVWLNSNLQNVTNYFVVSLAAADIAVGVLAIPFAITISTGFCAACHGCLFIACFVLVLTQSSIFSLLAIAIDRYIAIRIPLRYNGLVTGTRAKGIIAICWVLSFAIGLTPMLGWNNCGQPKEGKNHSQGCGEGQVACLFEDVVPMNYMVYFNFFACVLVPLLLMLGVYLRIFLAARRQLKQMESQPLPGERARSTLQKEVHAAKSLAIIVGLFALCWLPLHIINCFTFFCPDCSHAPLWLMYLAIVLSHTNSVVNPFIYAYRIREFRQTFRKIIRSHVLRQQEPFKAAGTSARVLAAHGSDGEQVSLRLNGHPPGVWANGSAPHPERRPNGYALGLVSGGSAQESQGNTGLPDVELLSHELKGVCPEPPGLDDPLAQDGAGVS
# assay-procedure: cAMP assay (Assay 2), A2A receptor
Give log10(IC50) for every item shown.
In plain terms, each number is the log10 of measured IC50 in µM.

## Task Look up log10(IC50) for this compound: `C[C@@H](NC(=O)c1nc(-c2cc(Cl)c3[nH]ncc3c2)c(-c2ccc(F)cc2)nc1N)c1ccccn1`
## Result -1.12

## Task Look up log10(IC50) for this compound: `CCN(CC)CCNC(=O)c1nc(-c2ccc3ncccc3c2)c(-c2ccccc2)nc1N`
## Result -0.72

## Task Look up log10(IC50) for this compound: `C[C@@H](NC(=O)c1nc(-c2cc(Cl)c3ncccc3c2)c(-c2ccc(F)cc2)nc1N)c1ccccn1`
## Result -0.78

## Task Look up log10(IC50) for this compound: `N#Cc1cccc(CNC(=O)c2nc(-c3ccc4ncccc4c3)c(-c3ccccc3)nc2N)n1`
## Result -1.74

## Task Look up log10(IC50) for this compound: CC(NC(=O)c1nc(-c2cc(Cl)c3ncccc3c2)c(-c2ccn(C)n2)nc1N)c1cccc(C#N)n1 (stereo not shown)
## Result -1.14

## Task Look up log10(IC50) for this compound: CC(Oc1nc(-c2cc(Cl)c3ncccc3c2)c(-c2ccc(F)cc2)nc1N)c1ccccn1 (stereo not shown)
## Result 0.15

## Task Look up log10(IC50) for this compound: `C[C@H](NC(=O)c1nc(-c2ccc3ncccc3c2)c(-c2ccccc2)nc1N)c1ncccn1`
## Result -0.96

====

Give IC50 for every item shown.
Dear colleague, please return just the value in nM, with no unit written.

## Task Notebook: pull reported IC50 for adenosine A2a (human) membrane (Homo sapiens (Human), UniProt P29274), entry CC(NC(=O)c1nc(-c2cc(Cl)c3ncccc3c2)c(-c2ccccc2)nc1N)c1ccccn1 (centres unmarked)
## Result 12

## Task Notebook: pull reported IC50 for adenosine A2a (human) membrane (Homo sapiens (Human), UniProt P29274), entry CC(NC(=O)c1nc(-c2ccc3ncccc3c2)c(-c2ccccc2)nc1N)c1ccccn1 (centres unmarked)
## Result 3.1

## Task Notebook: pull reported IC50 for adenosine A2a (human) membrane (Homo sapiens (Human), UniProt P29274), entry `C[C@@H](NC(=O)c1nc(-c2cc(Cl)c3ncccc3c2)c(-c2ccccc2)nc1N)c1cccc(C#N)n1`
## Result 1.1

## Task Notebook: pull reported IC50 for adenosine A2a (human) membrane (Homo sapiens (Human), UniProt P29274), entry `Nc1nc(-c2ccccc2)c(-c2ccc3ncccc3c2)nc1C(=O)NCCC1CCOCC1`
## Result 16

## Task Notebook: pull reported IC50 for adenosine A2a (human) membrane (Homo sapiens (Human), UniProt P29274), entry `N#Cc1cccc(CNC(=O)c2nc(-c3ccc4ncccc4c3)c(-c3ccccc3)nc2N)n1`
## Result 0.8

## Task Notebook: pull reported IC50 for adenosine A2a (human) membrane (Homo sapiens (Human), UniProt P29274), entry `C[C@@H](NC(=O)c1nc(-c2cc(Cl)c3ncccc3c2)c(-c2ccn(C)n2)nc1N)c1ccccn1`
## Result 1.6

## Task Notebook: pull reported IC50 for adenosine A2a (human) membrane (Homo sapiens (Human), UniProt P29274), entry `C[C@@H](NC(=O)c1nc(-c2ccc3ncccc3c2)c(-c2ccccc2)nc1N)c1ccccn1`
## Result 3.4

## Task Notebook: pull reported IC50 for adenosine A2a (human) membrane (Homo sapiens (Human), UniProt P29274), entry `C[C@@H](NC(=O)c1nc(-c2ccc3ncccc3c2)c(-c2cccc(C#N)c2)nc1N)c1cccc(C#N)n1`
## Result 269

## Task Notebook: pull reported IC50 for adenosine A2a (human) membrane (Homo sapiens (Human), UniProt P29274), entry CC(NC(=O)c1nc(-c2cc(Cl)c3ncccc3c2)c(-c2ccc(F)cc2)nc1N)c1cccc(C#N)n1 (centres unmarked)
## Result 1.9

## Task Notebook: pull reported IC50 for adenosine A2a (human) membrane (Homo sapiens (Human), UniProt P29274), entry C[C@@H](NC(=O)c1nc(-c2cc(Cl)c3ncccc3c2)c(-c2ccccc2)nc1N)c1ccccn1 [Compound No. 113]
## Result 4.7

## Task Notebook: pull reported IC50 for adenosine A2a (human) membrane (Homo sapiens (Human), UniProt P29274), entry `C[C@H](NC(=O)c1nc(-c2ccc3ncccc3c2)c(-c2cccc(C#N)c2)nc1N)c1cccc(C#N)n1`
## Result 16

## Task Notebook: pull reported IC50 for adenosine A2a (human) membrane (Homo sapiens (Human), UniProt P29274), entry `CC(C)(NC(=O)c1nc(-c2ccc3ncccc3c2)c(-c2ccccc2)nc1N)c1ccccn1`
## Result 1.3

## Task Notebook: pull reported IC50 for adenosine A2a (human) membrane (Homo sapiens (Human), UniProt P29274), entry `C[C@H](NC(=O)c1nc(-c2ccc3ncccc3c2)c(-c2ccccc2)nc1N)c1cnccn1`
## Result 3.9

## Task Notebook: pull reported IC50 for adenosine A2a (human) membrane (Homo sapiens (Human), UniProt P29274), entry `N#Cc1cccc(CNC(=O)c2nc(-c3cc(Cl)c4ncccc4c3)c(-c3ccc(F)cc3)nc2N)n1`
## Result 1.2

## Task Notebook: pull reported IC50 for adenosine A2a (human) membrane (Homo sapiens (Human), UniProt P29274), entry CC(NC(=O)c1nc(-c2ccc3ncccc3c2)c(-c2ccccc2)nc1N)c1ncccn1 (centres unmarked)
## Result 6.8

## Task Notebook: pull reported IC50 for adenosine A2a (human) membrane (Homo sapiens (Human), UniProt P29274), entry C[C@@H](NC(=O)c1nc(-c2cc(Cl)c3ncccc3c2)c(-c2ccccc2)nc1N)c1ccccn1 [Compound No. 123]
## Result 1.1

## Task Notebook: pull reported IC50 for adenosine A2a (human) membrane (Homo sapiens (Human), UniProt P29274), entry `C[C@@H](NC(=O)c1nc(-c2ccc3ncccc3c2)c(-c2ccn(C)n2)nc1N)c1ccccn1`
## Result 2.9

====

# tested-target: UniProtKB P30542
# assay-procedure: A1 adenosine receptor radioligand binding assay ([3H] DPCPX)
# measurement-parameters: 200 nM compound; radioligand [3H] DPCPX 1 nM
readout-type: inhibition at 0.2 µM (%)
Dear colleague, please return just the value in %, with no unit written.

## Task Look up inhibition at 0.2 µM for this molecule: `C[C@H](NC(=O)c1nc(-c2ccc3ncccc3c2)c(-c2ccccc2)nc1N)c1ccccn1`
## Result 63

## Task Look up inhibition at 0.2 µM for this molecule: `C[C@@H](NC(=O)c1nc(-c2cc(Cl)c3[nH]ncc3c2)c(-c2ccc(F)cc2)nc1N)c1ccccn1`
## Result 68

## Task Look up inhibition at 0.2 µM for this molecule: `C[C@@H](NC(=O)c1nc(-c2ccc3ncccc3c2)c(-c2ccn(C)n2)nc1N)c1ccccn1`
## Result 38

## Task Look up inhibition at 0.2 µM for this molecule: CC(NC(=O)c1nc(-c2ccc3ncccc3c2)c(-c2ccn(C)n2)nc1N)c1cccc(C#N)n1 (centres unmarked)
## Result 84

## Task Look up inhibition at 0.2 µM for this molecule: `C[C@H](NC(=O)c1nc(-c2cc(Cl)c3ncccc3c2)c(-c2ccccc2)nc1N)c1cccc(C#N)n1`
## Result 96

## Task Look up inhibition at 0.2 µM for this molecule: `N#Cc1cccc(-c2nc(N)cnc2-c2cc(Cl)c3[nH]ncc3c2)c1`
## Result 81

## Task Look up inhibition at 0.2 µM for this molecule: CC(NC(=O)c1nc(-c2ccc3ncccc3c2)c(-c2ccccc2)nc1N)c1ccccn1 (centres unmarked)
## Result 61

## Task Look up inhibition at 0.2 µM for this molecule: `N#Cc1cccc(CNC(=O)c2nc(-c3ccc4ncccc4c3)c(-c3ccccc3)nc2N)n1`
## Result 92

## Task Look up inhibition at 0.2 µM for this molecule: `C[C@H](NC(=O)c1nc(-c2ccc3ncccc3c2)c(-c2ccccc2)nc1N)c1cccc(C#N)n1`
## Result 98

## Task Look up inhibition at 0.2 µM for this molecule: `Cc1c(C#N)cccc1-c1nc(N)cnc1-c1cc(Cl)c2ncccc2c1`
## Result 30

## Task Look up inhibition at 0.2 µM for this molecule: `C[C@H](NC(=O)c1nc(-c2ccc3ncccc3c2)c(-c2ccccc2)nc1N)c1cnccn1`
## Result 61

Recorded values, source patent US11306071B2.
